test_target: PDE4B (Homo sapiens)
Construct: hexa-histidine (His6) (N); made in house
Sequence (Q07343 330-659 limits assumed, species assumed): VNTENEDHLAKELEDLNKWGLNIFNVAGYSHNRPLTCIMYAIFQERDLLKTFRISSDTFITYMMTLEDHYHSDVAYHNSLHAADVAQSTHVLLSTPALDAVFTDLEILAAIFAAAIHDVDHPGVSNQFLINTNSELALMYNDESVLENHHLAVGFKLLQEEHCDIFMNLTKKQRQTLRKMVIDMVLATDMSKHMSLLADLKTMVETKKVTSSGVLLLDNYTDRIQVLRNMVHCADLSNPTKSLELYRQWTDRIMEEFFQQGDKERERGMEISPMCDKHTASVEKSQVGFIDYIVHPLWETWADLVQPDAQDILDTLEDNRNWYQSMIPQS
experimental_protocol: PDE4 IMAP Assay
Assay type: biochemical
run_parameters: catalytic domain of PDE4B, fluorescence polarization
For each of the compounds below, state its inhibition at 10 µM.

Task: Entry COc1ccc(C2=NN(C(=O)CCC(=O)O)C(c3ccccc3)C2)cc1OC (centres unmarked) , system PDE4B (Homo sapiens): what inhibition at 10 µM was measured?
Result: < 50%

Task: Do the same for COc1ccc(C2=NN(S(=O)(=O)c3ccccc3)C(c3cn(-c4ccccc4)nc3-c3ccccc3)C2)cc1OC (centres unmarked) please
Result: < 50%

Task: Do the same for COc1ccc(C2CC(c3ccc(OC)c(OC)c3)=NN2S(=O)(=O)c2ccc(C)cc2)cc1 (centres unmarked) please
Result: < 50%

Task: Do the same for COc1ccc(OC)c(C2CC(c3ccc(OC)c(OC)c3)=NN2C(=O)CCCC(=O)O)c1 (centres unmarked) please
Result: < 50%

Task: Do the same for COc1ccc(C2=NN(C(C)=O)C(c3cn(-c4ccccc4)nc3-c3ccccc3)C2)cc1OC (centres unmarked) please
Result: < 50%

Task: Do the same for COc1ccc(C2=NN(C(=O)CCCC(=O)O)C(c3ccccc3Cl)C2)cc1OC (centres unmarked) please
Result: < 50%

Task: Do the same for COc1ccc(C2=NN(C(C)=O)C(c3cc4ccccc4nc3Cl)C2)cc1OC (centres unmarked) please
Result: < 50%

Task: Do the same for COc1ccc(C2=NN(C(=O)c3ccc(Br)o3)C(c3ccccc3Cl)C2)cc1OC (centres unmarked) please
Result: < 50%

The values you see were collected from patent US20100105729A1.
